Biological target: T1, Abp1, P15891
T1 sequence (P15891 535-592, looked up): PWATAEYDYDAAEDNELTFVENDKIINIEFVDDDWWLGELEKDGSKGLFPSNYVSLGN
Experiment: SPOT array
Conditions: median of control spots 935
endpoint.label: SPOT intensity

[[record]]
binder = "SGVRLPAPPPPPRRG"
reported_value = 0

[[record]]
binder = "VATSTSPKLPPRGKQ"
reported_value = 23

[[record]]
binder = "GAGERPRLVPRPINV"
reported_value = 9


A. RHLKLVPSTPMDIPW
B. LEFRAILFIPKRAPF
C. NFLRLLIGLPSQNEL
D. FFRRSELYLPNSSKA
Ranking field: SPOT intensity; order: falling. List the labels in the requested order.
B, C, A, D
